Origin of the recorded values: PubChem BioAssay (NCI)

Assay: NCI Yeast Anticancer Drug Screen. Data for the cln2 rad14 strain (AID 165);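 note: 0% = growth equal to vehicle treated cultures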
Settings: S. cerevisiae cln2 rad14 strain, at 50.0 µM, hits give high values
The panel holds about 79,000 compounds, 15% with a hit somewhere; the sample as a whole holds those more often.
Would you kindly list growth inhibition for each of these compounds?
Supply the numeric figure in %, leaving out any unit text.

Value of growth inhibition reported for the compound CCCCC(CC)(SC(CC)C(N)=O)C(N)=O (stereo unspecified) is 20.1

Value of growth inhibition reported for the compound CCS(=O)(=O)OCCOC is 57.6

Value of growth inhibition reported for the compound CC1(C)N=C(N)N=C(N)N1c1cccc(CCC(=O)Nc2cccnc2)c1 is 9.05

Value of growth inhibition reported for the compound CCOC(=O)c1nnc(-c2ccccc2)nc1Cl is -12.9

Value of growth inhibition reported for the compound C/C(=N\NC(=O)c1ccncc1)c1cccc(Br)c1 is 6.6

Value of growth inhibition reported for the compound COC(=O)c1ccc(Cl)c(Cl)c1Cl is -11.8

Value of growth inhibition reported for the compound Clc1ccc2nc(/C=C/c3ccccc3)ccc2c1 is 3.35

Value of growth inhibition reported for the compound CC(=O)N(C)N=Nc1ccc(C(F)(F)F)cc1 is -30.1

Value of growth inhibition reported for the compound CC(=O)OC[C@@H](OC(C)=O)[C@@H](OC(C)=O)[C@H]1OC[C@@H]2C[C@H]([C@H]1OC(C)=O)N(Cc1ccccc1)O2 is 4.25

Value of growth inhibition reported for the compound Cc1ccc(C)n1-n1c(-c2ccccc2)n[nH]c1=O is -3.4

Value of growth inhibition reported for the compound Cc1cc(Cl)ccc1NC(=O)/C(Cc1nc2ccc(C(=O)c3ccccc3)cc2[nH]c1=O)=N/NC(=O)c1ccncc1 is -33.7

====

Test: NCI Yeast Anticancer Drug Screen. Data for the cln2 rad14 strain (AID 165);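 note: 0% = growth equal to vehicle treated cultures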
Details: S. cerevisiae cln2 rad14 strain, at 50.0 µM, hits give high values
This is part of a sample that, as a whole, favours compounds with a hit. Of some 79,000 tested, about 15% had one in any assay.
assay_readout: growth inhibition (%)
Supply the numeric figure in %, leaving out any unit text.

Value of growth inhibition reported for the compound COc1cc(Nc2nc3cc(C(F)(F)F)ccc3nc2-c2ccccc2)cc(OC)c1OC is -11.8

Value of growth inhibition reported for the compound C=CCOC(=O)NC(CCC(N)=O)C(=O)O (centres undefined) is 9.5

Value of growth inhibition reported for the compound COc1ccc(-c2cc(N)c3c(c2O)C(=O)c2c(N)ccc(O)c2C3=O)cc1 is -23.6

Value of growth inhibition reported for the compound CCOC(=O)c1c[nH]n(Cc2ccccc2)c1=O is -23.2

Value of growth inhibition reported for the compound COc1ccc(N2C(=O)[C@@H](N=[N+]=[N-])[C@@H]2[C@H]2COC(C)(C)O2)cc1 is 5

Value of growth inhibition reported for the compound Cn1c(=O)c2conc2n(-c2ccc(Cl)cc2)c1=O is -19.9

Value of growth inhibition reported for the compound CCSc1n[nH]c(=S)c2nc[nH]c12 is 6.3

Value of growth inhibition reported for the compound CC1(C)OCN(c2ccc(Cl)cc2)Cn2c1nc1ccccc12 is 2.5

Value of growth inhibition reported for the compound NC(=O)Nc1ccc(S(=O)(=O)c2ccc(N)cc2)cc1 is -5.35

Value of growth inhibition reported for the compound COc1ccc2oc(=N)c(C(=O)NCc3ccccc3)cc2c1 is -6.35

Value of growth inhibition reported for the compound CN1C(c2ccco2)NC(=O)C12CCN(Cc1ccccc1)CC2 (centres undefined) is 10.2

Value of growth inhibition reported for the compound O=C(CC1(O)CCCCC1)Nc1ccccc1 is -54.6

Value of growth inhibition reported for the compound O=C(O)c1ccccc1[N+](=O)[O-] is 1.3

Value of growth inhibition reported for the compound C/C=C(/C)C(=O)O[C@H]1C[C@@H]2[C@@H](O)c3occ(C)c3C[C@]2(C)[C@@H](C)C1 is 90

Value of growth inhibition reported for the compound O=C(CCCCc1ccccc1)NO is 15.8

Value of growth inhibition reported for the compound Cc1cccc(/C=N/NC(=S)N2CCCCCC2)n1 is 92.8

Value of growth inhibition reported for the compound CNCC(=O)NC(CO)C(=O)NC(CO)C(=O)NC1C(C(N)=O)OC(n2ccc(N)nc2=O)C(O)C1O (centres undefined) is 38.5

Value of growth inhibition reported for the compound O=C(N/N=C/c1ccc(Cl)c([N+](=O)[O-])c1)C(O)(c1ccccc1)c1ccccc1 is -4.45

Value of growth inhibition reported for the compound O=C(c1ccccc1)N1CCOCC1 is 12.3

Value of growth inhibition reported for the compound CCCCC(CC)CN(CC(CC)CCCC)C(=O)C(C)OC(=O)C(CC)CCCC (centres undefined) is -4.3

Value of growth inhibition reported for the compound COC(=O)C1(C)C(=O)NC(=O)CC1C (centres undefined) is -30.5

Value of growth inhibition reported for the compound CCCCOC(=O)C(=O)C(CC(CC)C(=O)c1ccccc1)C(=O)C=C(C)C (centres undefined) is -15.2

Value of growth inhibition reported for the compound O=[N+]([O-])c1ccc(/C=C(/c2ccc([N+](=O)[O-])o2)S(=O)(=O)C(Cl)(Cl)Cl)cc1 is 97.1

Value of growth inhibition reported for the compound CC(C)=CCC/C(C)=C/C=O is 9.6
